Molecular target: T1, HLA-A*02:01 (human)
T1 construct: MHC class I monomer of the UV-ligand exchange assay; also called peptide-receptive MHC molecules; MHC class I
Experiment: UV peptide-exchange ELISA
peptide exchange yield listing for selected binders.
quantity: peptide exchange yield

1. LLILENILL; 50 to 75%
2. VIAELPPKV; 20 to 50%
3. LVYEAPETV; 50 to 75%
4. FLAEASVMTQL; 50 to 75%
5. ILDLNTYNV; 50 to 75%
6. SLPEAPLDV; 50 to 75%
7. FIMEGGAMVL; ≥ 75%
8. KLWEGLTELV; 50 to 75%
9. KLWNVAAPLYL; 50 to 75%
10. LLFDHLEPMEL; 50 to 75%
11. VLLSVPGPPV; 50 to 75%
12. LLPTGVFQV; 50 to 75%
13. NLDKLWTLV; 20 to 50%
14. TILDYINVV; 50 to 75%
15. AIPPSFASIFL; 50 to 75%
16. NLWSVDGEVTV; 50 to 75%
17. ILQPMDIHV; 50 to 75%
18. ALIFKIASA; 50 to 75%
19. NLIKTVIKL; 50 to 75%
20. IQDRAVPSL; 20 to 50%
21. ALYLTEVFL; ≥ 75%
22. VMDDQRDLI; 20 to 50%
23. FLVEPQEDTRL; 50 to 75%
24. VVMGTVPRL; 50 to 75%
25. ALEDRVWEL; 50 to 75%
26. FTVPRVVAV; 50 to 75%
27. VTLEFPQLIRV; 50 to 75%
28. VLAELPIIVV; 50 to 75%

Sourced from patent US20170165337A1
